assay: Cmax in Hartley guinea pig at 10 mg/kg, po administered as single dose; type: ADME, organism-based, Cavia porcellus; parameters: dose 10 mg/kg, route oral; details: in vivo
Collected Cmax values appear next to each entry.

Solved entries:
[[record]]
smi = "CCS(=O)(=O)N1CCN(c2ccc(OC[C@@H]3CO[C@@](Cn4ccnc4)(c4ccc(Cl)cc4Cl)O3)cc2)CC1"
measurement_type = "Cmax"
endpoint_value = "710 ng/mL"

[[record]]
smi = "CC(C)S(=O)(=O)N1CCN(c2ccc(OC[C@@H]3CO[C@@](Cn4ccnc4)(c4ccc(Cl)cc4Cl)O3)cc2)CC1"
measurement_type = "Cmax"
endpoint_value = "358 ng/mL"

[[record]]
smi = "N#CCS(=O)(=O)N1CCN(c2ccc(OC[C@@H]3CO[C@@](Cn4ccnc4)(c4ccc(Cl)cc4Cl)O3)cc2)CC1"
measurement_type = "Cmax"
endpoint_value = "1970 ng/mL"


Moving on to another compound below.
*Q* Can you look up the measured Cmax of O=S(=O)(C1CC1)N1CCN(c2ccc(OC[C@@H]3CO[C@@](Cn4ccnc4)(c4ccc(Cl)cc4Cl)O3)cc2)CC1 for me?
*A* 1560 ng/mL
